Some binders, each annotated with its measured Bmax.
# experimentalTarget: T1, rhNav1.7α + β1-β2-β3 (rhesus monkey)
# T1 construct: also called rhNav1.7-beta1-beta2-beta3; rhesus Nav1.7α
# assayMethodText: binding FACS, CHO FlpIn cells

{"binder": "F0103464B09 (VHH, entry includes the FLAG-HIS6 tag; also called F0103464B09 (parental)-FLAG-HIS6; F103464B09) VHH: EVQLVESGGGLVQPGGSLRLSCATTSRAFIRDVFTGWYRRVPGKERELVARIYNGGNTNYADFAKGRFSISRDNAKKMVTLRMSNLKPEDTGVYYCLFSGTINTGREYRSGDYWGQGTLVTVSS", "Bmax (%)": 54}
{"binder": "F010302350 (VHH) VHH: EVQLVESGGGVVQPGGSLRLSCAASSRQFIRDVFTGWYRRAPGKQRELVARIYNEGNTQYADSVKGRFTISRDNAKKTVYLQMNSLRPEDTALYYCLFSGTISTGREYRSGDYWGQGTLVTVSS", "Bmax (%)": 46}
{"binder": "F010302361 (VHH) VHH: EVQLVESGGGVVQPGGSLRLSCAASHRQFIRDVFTGWYRQAPGKQRELVARIYEGGNTQYADSVKGRFTISRDNAKKTVYLQMNSLRPEDTALYYCLFSGTISTGREYRSGDYWGQGTLVTVSS", "Bmax (%)": 92}
{"binder": "F010302343 (VHH) VHH: EVQLVESGGGVVQPGGSLRLSCAASSRQFIRDVFTGWYRQAPGKQRELVARIYESGNTQYADSAKGRFTISRDNAKKTVYLQMNSLRPEDTALYYCLFSGTISTGREYRSGDYWGQGTLVTVSS", "Bmax (%)": 84}
{"binder": "F010301881 (VHH, G54W vs F0103464B09 (Kabat)) VHH: EVQLVESGGGLVQPGGSLRLSCATTSRAFIRDVFTGWYRRVPGKERELVARIYNWGNTNYADFAKGRFSISRDNAKKMVTLRMSNLKPEDTGVYYCLFSGTINTGREYRSGDYWGQGTLVTVSS", "Bmax (%)": 99}
{"binder": "F010301883 (VHH, I51V vs F0103464B09 (Kabat)) VHH: EVQLVESGGGLVQPGGSLRLSCATTSRAFIRDVFTGWYRRVPGKERELVARVYNGGNTNYADFAKGRFSISRDNAKKMVTLRMSNLKPEDTGVYYCLFSGTINTGREYRSGDYWGQGTLVTVSS", "Bmax (%)": 48}
{"binder": "F010302348 (VHH) VHH: EVQLVESGGGVVQPGGSLRLSCAASHRAFIRDLFTGWYRQAPGKQRELVARIYESGNTNYADSAKGRFTISRDNAKKTVYLQMNSLRPEDTALYYCLFSGTISTGREYRSGDYWGQGTLVTVSS", "Bmax (%)": 95}
{"binder": "F010302345 (VHH) VHH: EVQLVESGGGVVQPGGSLRLSCAASHRQFIRDVFTGWYRQAPGKQRELVARIYEGGNTQYADSAKGRFTISRDNAKKTVYLQMNSLRPEDTALYYCLFSGTISTGREYRSGDYWGQGTLVTVSS", "Bmax (%)": 96}
